Entries annotated with measured shrunken log2 fold change
Tested on: Escherichia coli TOP10;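 note: peptides expressed intracellularly from a pBAD plasmid library in pooled LB shake-flask culture, induced with 0.3% L-arabinose, DNA abundance read by NGS, three biological replicates, DESeq2 with apeglm shrinkage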
Test: shrunken log2 fold change of peptide-encoding DNA abundance (4.5 h post-induction vs induction); higher = less antimicrobial activity (less host growth inhibition)
Details: time post-induction: 4.5 h; library: site-saturation at positions 5, 18, 19, 20
Quick one: just the number, no unit, thanks!

Solved entries (count: 5):
> print(dat)
          sequence.content       val
1  RRIRNRPPRLPRPRPRPPRNPRP     0.196
2  RRIRMRPPRLPRPRPRPCKLPRP  -0.00365
3  RRIRTRPPRLPRPRPRPRDFPRP    0.0849
4  RRIRNRPPRLPRPRPRPQGRPRP   -0.0865
5  RRIRSRPPRLPRPRPRPAGIPRP     0.138

**Query** So what does the record say about shrunken log2 fold change for RRIRVRPPRLPRPRPRPEHQPRP ?
**Result** -0.477

**Query** Please give the result for RRIRKRPPRLPRPRPRPCQDPRP too.
**Result** 0.0115

**Query** Please give the result for RRIRHRPPRLPRPRPRPRVRPRP too.
**Result** 0.0975

**Query** Please give the result for RRIRLRPPRLPRPRPRPCSVPRP too.
**Result** -0.0962

// data source = the supplement of paper PMC9112550
